assayed.system: human kappa opioid receptor (hKOR) (Homo sapiens)
Sequence (P41145 whole entry): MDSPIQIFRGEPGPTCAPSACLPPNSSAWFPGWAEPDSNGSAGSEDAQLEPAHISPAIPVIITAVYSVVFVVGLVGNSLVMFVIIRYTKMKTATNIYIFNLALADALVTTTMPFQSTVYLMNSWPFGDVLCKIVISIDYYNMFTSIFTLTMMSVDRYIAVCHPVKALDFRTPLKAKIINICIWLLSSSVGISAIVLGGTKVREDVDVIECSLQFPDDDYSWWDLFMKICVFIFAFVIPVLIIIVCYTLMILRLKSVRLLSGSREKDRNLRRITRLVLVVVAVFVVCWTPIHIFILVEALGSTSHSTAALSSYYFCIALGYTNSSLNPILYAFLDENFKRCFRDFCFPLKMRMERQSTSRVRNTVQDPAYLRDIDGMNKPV
measurement.description: cell-based
Square brackets hold non-standard residues; d marks the D form. Peptide text beside a SMILES is read from it. * marks the point of attachment. Homopiperazine(4-amidino) = N=C(N)N1CCCN(*)CC1; d(hArg) = N=C(N)NCCCC[C@@H](N)C(=O)O
Items are presented alongside their recorded EC50.

Consider the worked cases shown below.
CC(C)C[C@@H](NC(=O)[C@@H](Cc1ccccc1)NC(=O)[C@H](N)Cc1ccccc1)C(=O)N[C@H](CCCCNC(=N)N)C(=O)N1CCCN(C(=N)N)CC1 [Compound (16)] (H-[dF][dF][dL][d(hArg)]-{Homopiperazine(4-amidino)}) | 0.11 nM
CC(C)C[C@@H](NC(=O)[C@@H](Cc1ccccc1)NC(=O)[C@H](N)Cc1ccccc1)C(=O)N[C@H](CCCCN)C(=O)N1CCN(S(=O)(=O)N(C)C)CC1 | 0.0194 nM
CC(C)C[C@@H](NC(=O)[C@@H](Cc1ccccc1)NC(=O)[C@H](N)Cc1ccccc1)C(=O)N[C@H](CCCNC(C)C)C(=O)N1CCCNCC1 | 0.07 nM

Request the reported EC50 associated with CC(C)C[C@@H](NC(=O)[C@@H](Cc1ccccc1)NC(=O)[C@H](N)Cc1ccccc1)C(=O)N[C@H](CCCCN)C(=O)NCC1CCOCC1 0.0034 nM

###

Items are presented alongside their recorded Emax.
assayed.system: human kappa opioid receptor (hKOR) (Homo sapiens)
Construct: expressed in transfected cells; host or cells: HEK-293 cells, transient transfection with Fugene6
measurement.description: cell-based
condition.summary: HEK293, read-out: hKOR Efficacy(%)
Square brackets hold non-standard residues; d marks the D form. Peptide text beside a SMILES is read from it. * marks the point of attachment. Homopiperazine(4-amidino) = N=C(N)N1CCCN(*)CC1; dAgp = N=C(N)NC[C@@H](N)C(=O)O; dDab = NCC[C@@H](N)C(=O)O
Unit % implied. Number only.

Consider the worked cases shown below.
CC(C)C[C@@H](NC(=O)[C@@H](Cc1ccccc1)NC(=O)[C@H](N)Cc1ccccc1)C(=O)N[C@H](CCCCN)C(=O)N1CCN(c2cnccn2)CC1 [Compound (64)] | 100
CC(C)C[C@@H](NC(=O)[C@@H](Cc1ccccc1)NC(=O)[C@H](N)Cc1ccccc1)C(=O)N[C@H](CCCCN)C(=O)N1CCS(=O)(=O)CC1 [Compound (71)] | 103
CNCCCC[C@@H](NC(=O)[C@@H](CC(C)C)NC(=O)[C@@H](Cc1ccccc1)NC(=O)[C@H](N)Cc1ccccc1)C(=O)N1CCC(N)(C(=O)O)CC1 [Compound (3)] | 100
CC(C)C[C@@H](NC(=O)[C@@H](Cc1ccccc1)NC(=O)[C@H](N)Cc1ccccc1)C(=O)N[C@H](CNC(=N)N)C(=O)N1CCCN(C(=N)N)CC1 [Compound (18)] (H-[dF][dF][dL][dAgp]-{Homopiperazine(4-amidino)}) | 93

Proceed to the following item.
Request the reported Emax associated with CC(C)C[C@@H](NC(=O)[C@@H](Cc1ccccc1)NC(=O)[C@H](N)Cc1ccccc1)C(=O)N[C@H](CCN)C(=O)N1CCCN(C(=N)N)CC1 [Compound (22)] (H-[dF][dF][dL][dDab]-{Homopiperazine(4-amidino)}) 86

###

Items are presented alongside their recorded pEC50.
assayed.system: UniProt:P41145
measurement.description: cell-based
Square brackets hold non-standard residues; d marks the D form. Peptide text beside a SMILES is read from it. * marks the point of attachment. Homopiperazinyl = C1CNCCN(*)C1
# reply with the number alone; pEC50 is -log10 of concentration in mol/L

Consider the worked cases shown below.
CC(C)C[C@@H](NC(=O)[C@@H](Cc1ccccc1)NC(=O)[C@H](N)Cc1ccccc1)C(=O)N[C@H](CCCCN)C(=O)N1CCC(N2CCC[C@H]2C(=O)O)CC1 | 9.82
CNCCCC[C@@H](NC(=O)[C@@H](CC(C)C)NC(=O)[C@@H](Cc1ccccc1)NC(=O)[C@H](N)Cc1ccccc1)C(=O)N1CCC(N)(C(=O)O)CC1 | 9.80
CC(C)C[C@@H](NC(=O)[C@@H](Cc1ccccc1)NC(=O)[C@H](N)Cc1ccccc1)C(=O)N[C@H](CCCCN)C(=O)N1CCCN(C(=N)N)CC1 | 9.96
CC(C)C[C@@H](NC(=O)[C@@H](Cc1ccccc1)NC(=O)[C@H](N)Cc1ccccc1)C(=O)N[C@H](CCCNC(=N)N)C(=O)N1CCCNCC1 [Compound (7)] (H-[dF][dF][dL][dR]-Homopiperazinyl) | 9.96
CC(C)C[C@@H](NC(=O)[C@@H](Cc1ccccc1)NC(=O)[C@H](N)Cc1ccccc1)C(=O)N[C@H](CCCN)C(=O)N1CCOC(C(=O)O)C1 (stereo partly drawn) | 9.80

Proceed to the following item.
Request the reported pEC50 associated with CC(C)C[C@@H](NC(=O)[C@@H](Cc1ccccc1)NC(=O)[C@H](N)Cc1ccccc1)C(=O)N[C@H](CCCN)C(=O)N1CCC(N)(C(=O)O)CC1 9.85
